Where do these numbers come from? They come from ChEMBL document CHEMBL1138970.

Biological target: Human immunodeficiency virus type 1 reverse transcriptase (Human immunodeficiency virus 1, UniProt Q72547)
Test: Inhibition of FLAG-p66/HIS-p51-mediated HIV1 reverse transcriptase dimerization
1 (yes) if IC50 is below 7 µM. 0 (no) if not; exact matches included in 0 (no).

test_smiles=Cc1cn([C@@H]2O[C@H](CO[Si](C)(C)C(C)(C)C)[C@@]3(OS(=O)(=O)C=C3N)[C@H]2O[Si](C)(C)C(C)(C)C)c(=O)[nH]c1=O answer_label="1 (yes)"
test_smiles=Cc1cn([C@@H]2O[C@H](CO[Si](C)(C)C(C)(C)C)[C@@]3(OS(=O)(=O)C=C3N=C(N)N)[C@H]2O[Si](C)(C)C(C)(C)C)c(=O)[nH]c1=O answer_label="0 (no)"
test_smiles=CN(C)C(=O)c1cnnn1[C@@H]1O[C@H](CO[Si](C)(C)C(C)(C)C)[C@@]2(OS(=O)(=O)C=C2N)[C@H]1O[Si](C)(C)C(C)(C)C answer_label="0 (no)"
test_smiles=Cc1cn([C@@H]2O[C@H](CO[Si](C)(C)C(C)(C)C)[C@@]3(OS(=O)(=O)C(/C=C/CO)=C3N)[C@H]2O[Si](C)(C)C(C)(C)C)c(=O)[nH]c1=O answer_label="0 (no)"
test_smiles=Cc1cn([C@@H]2O[C@H](CO[Si](C)(C)C(C)(C)C)[C@@]3(OS(=O)(=O)C=C3N)[C@H]2O[Si](C)(C)C(C)(C)C)c(=O)n(/C=C/CO)c1=O answer_label="1 (yes)"
test_smiles=Cc1cn([C@@H]2O[C@H](CO[Si](C)(C)C(C)(C)C)[C@@H](O)[C@H]2O[Si](C)(C)C(C)(C)C)c(=O)n(CC(=O)O)c1=O answer_label="1 (yes)"
